Provide the reported IC50 of each item.
Biological target: human RAF1 (Homo sapiens, UniProt P04049)
Sequence (P04049 whole entry): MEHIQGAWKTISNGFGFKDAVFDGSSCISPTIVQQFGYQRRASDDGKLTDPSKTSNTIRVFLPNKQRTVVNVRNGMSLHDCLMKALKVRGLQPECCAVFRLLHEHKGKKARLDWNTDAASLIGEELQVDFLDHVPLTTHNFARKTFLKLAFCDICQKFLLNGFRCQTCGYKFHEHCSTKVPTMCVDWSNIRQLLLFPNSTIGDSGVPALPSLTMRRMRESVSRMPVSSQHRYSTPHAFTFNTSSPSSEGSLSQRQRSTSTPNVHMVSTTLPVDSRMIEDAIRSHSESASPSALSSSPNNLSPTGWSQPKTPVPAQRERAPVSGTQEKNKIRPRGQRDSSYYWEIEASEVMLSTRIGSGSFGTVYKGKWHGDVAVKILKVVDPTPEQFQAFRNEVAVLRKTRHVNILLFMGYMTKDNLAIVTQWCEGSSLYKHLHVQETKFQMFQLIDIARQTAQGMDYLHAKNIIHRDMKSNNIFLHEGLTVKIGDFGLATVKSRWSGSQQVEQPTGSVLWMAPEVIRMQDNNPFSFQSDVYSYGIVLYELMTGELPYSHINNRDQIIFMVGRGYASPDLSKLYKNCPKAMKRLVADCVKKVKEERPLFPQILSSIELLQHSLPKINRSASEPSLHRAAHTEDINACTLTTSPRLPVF
Test: Protein kinase assay (33P-ATP filter binding), human RAF1, 10-dose IC50
Details: MEK1 (K97R) substrate 3 micromolar, ATP 10 micromolar, read-out: RAF-1 IC50

C/C(=C1/CCN(C(=O)Nc2cc(-c3cc(OCCO)nc(N4CCOCC4)c3)c(C)cc2F)C1)C(F)(F)F [Example 95] = < 10 nM
Cc1cc(F)c(NC(=O)N2CCC(C(F)(F)C(F)(F)F)C2)cc1-c1cc(OCCO)nc(N2CCOCC2)c1 (single isomer, unassigned) [Example 85] = < 10 nM
Cc1cc(F)c(NC(=O)N2CCNC(C(F)(F)F)C2)cc1-c1cc(OCCO)nc(N2CCOCC2)c1 (racemic) [Example 7] = < 10 nM
Cc1cc(F)c(NC(=O)N2CCC(C(F)(F)F)C2C)cc1-c1cc(OCCO)nc(N2CCOCC2)c1 (single isomer, unassigned) [Example 65] = 10 to 100 nM

State the recorded IC50 for every item in the following list.
1. Cc1ccc(NC(=O)N2CC[C@@H](OC(F)(F)F)C2)cc1-c1cc(OCC(C)(C)O)nc(N2CCOCC2)c1 [Example 149]
2. Cc1cc(F)c(NC(=O)N2CC[C@H](C(F)(F)F)C2)cc1-c1cc(OCCO)nc(N2CCOC[C@H]2C)c1 (single isomer, unassigned) [Example 30]
3. Cc1ccc(NC(=O)N2CCC3(CCC3(F)F)C2)cc1-c1cc(OCCO)nc(N2CCOCC2)c1 (single isomer, unassigned) [Example 121]
4. Cc1ccc(NC(=O)N2CC[C@@H](CC(F)(F)F)C2)cc1-c1cc(O[C@H](C)[C@@H](C)O)nc(N2CCOCC2)c1 [Example 233]
5. Cc1ccc(NC(=O)N2CC[C@H](CC(F)(F)F)C2)cc1-c1cnc(OC2CCOCC2)c(N2CCOCC2)c1 (single isomer, unassigned) [Example 194]
6. Cc1cc(F)c(NC(=O)N2CC[C@@H](CC(F)(F)F)C2)cc1-c1cc(OCCO)nc(N2CCOCC2)c1 (single isomer, unassigned) [Example 75]
7. Cc1cc(F)c(NC(=O)N2CC[C@@]3(C2)CC3(F)F)cc1-c1cc(OCCO)nc(N2CCOCC2)c1 (single isomer, unassigned) [Example 63]

-- reply
< 10 nM
< 10 nM
< 10 nM
< 10 nM
< 10 nM
< 10 nM
< 10 nM

State the recorded IC50 for every item in the following list.
1. Cc1ccc(NC(=O)N2CCC(CC(F)(F)F)C2)cc1-c1cc(O[C@H]2CCN(C)C2)nc(N2CCOCC2)c1 (stereo partly shown) [Example 195]
2. Cc1cc(F)c(NC(=O)N2CC3CCC3(C(F)(F)F)C2)cc1-c1cc(OCCO)nc(N2CCOCC2)c1 (single isomer, unassigned) [Example 83]

-- reply
1. < 10 nM
2. < 10 nM

###

Provide the reported pIC50 of each item.
Biological target: human RAF1 (Homo sapiens, UniProt P04049)
Assay: Protein kinase assay (33P-ATP filter binding), human RAF1, 10-dose IC50
Conditions: MEK1 (K97R) substrate 3 micromolar, ATP 10 micromolar, read-out: RAF-1 IC50
pIC50: −log10 of the molar value.

Cc1ccc(NC(=O)N2CC[C@@H](CC(F)(F)F)C2)cc1-c1cc(O[C@H]2CC[C@@H](O)C2)nc(N2CCOCC2)c1 [Example 209] = > 8.00

State the recorded pIC50 for every item in the following list.
1. CC(C#N)=C1CCN(C(=O)Nc2cc(-c3cc(OCCO)nc(N4CCOCC4)c3)c(C)cc2F)C1 (stereo in doubt) [Example 97]
2. Cc1cc(F)c(NC(=O)N2CCC(C(C)C(F)(F)F)C2)cc1-c1cc(OCCO)nc(N2CCOCC2)c1 (single isomer, unassigned) [Example 101]

-- reply
1. > 8.00
2. > 8.00
